B1: EHEE_rd4_0086 (parent)
chain: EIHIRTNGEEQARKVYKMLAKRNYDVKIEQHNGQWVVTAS

- Variants of: B1
- assay_protocol: folding stability dG (cDNA display proteolysis); higher = more stable
- applied_conditions: PBS, room temperature
Each item that follows carries a reported folding stability dG.
// units = kcal/mol; emit number, no label

Use the examples below as a reference point.
{"columns": ["mutant_code", "u", "folding stability dG"],
 "data": [
  ["E9F", "kcal/mol", 2.33],
  ["H3R", "kcal/mol", 2.4]
]}

q: Fill in the blank: the reported folding stability dG of M18Q is ____.
a: 1.5

q: Request: V36D
a: 0.384

q: For T38Y then?
a: 1.75

q: Another: T38Q
a: 0.832

q: Next variant: E9I
a: 2.26

q: Let us now turn to Q11M
a: 1.95

q: Also R22I , if possible.
a: 1.31

q: Also check Q34H
a: 2.04

q: Can you check Q34V next?
a: 2.27

q: Here is the next variant: G33Y
a: 0.642

q: Param item: T38A
a: 0.835

q: // query: R22D
a: 1.08

q: Same read-out for I4Y ?
a: 2.12
